- system-tested: CgiNAP2X1 (Magallana gigas, UniProt A0A8W8INI3)
- Sequence (A0A8W8INI3 23-318 limits assumed): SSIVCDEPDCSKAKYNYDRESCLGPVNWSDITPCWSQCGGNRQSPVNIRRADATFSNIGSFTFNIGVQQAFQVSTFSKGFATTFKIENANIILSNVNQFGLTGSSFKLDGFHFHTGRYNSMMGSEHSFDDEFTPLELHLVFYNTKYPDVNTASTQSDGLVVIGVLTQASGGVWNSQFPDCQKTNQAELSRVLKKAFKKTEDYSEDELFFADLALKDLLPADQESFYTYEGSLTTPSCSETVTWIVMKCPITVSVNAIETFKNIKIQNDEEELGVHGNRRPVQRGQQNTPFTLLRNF
- assay-protocol: stopped-flow CO2 hydration assay
- Assay type: biochemical
Cut-off 8 mM on Ki: below means True, at or above means False.

- compound: "N#CS [SCN^−]"
  system-tested: "CgiNAP2X1 (Magallana gigas, UniProt A0A8W8INI3)"
  category-label: "True"
- compound: "[O]=[Sn]([OH])[OH] [SnO3^2−]"
  system-tested: "CgiNAP2X1 (Magallana gigas, UniProt A0A8W8INI3)"
  category-label: "True"
- compound: "Cl [Cl^−]"
  system-tested: "CgiNAP2X1 (Magallana gigas, UniProt A0A8W8INI3)"
  category-label: "False"
- compound: "N#CO [CNO^−]"
  system-tested: "CgiNAP2X1 (Magallana gigas, UniProt A0A8W8INI3)"
  category-label: "True"
- compound: "OB(O)c1ccccc1 [phenylboronic acid]"
  system-tested: "CgiNAP2X1 (Magallana gigas, UniProt A0A8W8INI3)"
  category-label: "True"
- compound: "I [I^−]"
  system-tested: "CgiNAP2X1 (Magallana gigas, UniProt A0A8W8INI3)"
  category-label: "False"
- compound: "O=S(=O)(O)C(F)(F)F [CF3SO3^−]"
  system-tested: "CgiNAP2X1 (Magallana gigas, UniProt A0A8W8INI3)"
  category-label: "False"
- compound: "O=NO [NO2^−]"
  system-tested: "CgiNAP2X1 (Magallana gigas, UniProt A0A8W8INI3)"
  category-label: "True"
